Assembled from different publications: IC50 for Histone-lysine N-methyltransferase EZH2 (Homo sapiens).
Please state the figure in nM; there is no need to write the unit.

Short answer for CCN(c1cc(Cl)cc(C(=O)NCc2c(C)n(C)[nH]c2=O)c1C)[C@H]1CC[C@H](N(C)Cc2cccc(OC)c2)CC1 : IC50 was 20

Item: CCn1nc(OC)c(CNC(=O)c2cc(Cl)cc(N(CC)[C@H]3CC[C@H](N(C)CCOC)CC3)c2C)c1C | IC50: 17500

Entry Cc1cc(C)c(CNC(=O)c2cc(Cl)c3c(c2Cl)OC(C)(C2CCN(C)CC2)O3)c(=O)[nH]1 (stereo not drawn) — recorded IC50 = 35

Quick note, IC50 for Cc1cc(C)c(CNC(=O)c2cc(Br)c3c(c2C)OC(C)(CN2CCN(C)CC2)O3)c(=O)[nH]1 (stereo not drawn) landed at 41

# IC50 (compound: CCN(c1cc(Cl)cc(C(=O)NCc2c(C(F)(F)F)n(C)n(C)c2=O)c1C)[C@H]1CC[C@H](N(C)C)CC1 ) is 1910

The value of IC50 measured for the compound CCN(c1cc(N2Cc3ccc(NC4CCOCC4)cc3C2)cc(C(=O)NCc2c(C)cc(C)[nH]c2=O)c1C)C1CCOCC1 turned out to be 0.89

Entry under test: CCn1[nH]c(C)c(CNC(=O)c2cc(Cl)cc(N(CC)[C@H]3CC[C@H](N(C)C)CC3)c2C)c1=O . Its IC50 was 829

###

Field: IC50. System: Histone-lysine N-methyltransferase EZH2 (Homo sapiens). Provenance: assorted publications.

IC50 value, target or system Histone-lysine N-methyltransferase EZH2 (Homo sapiens), for Cc1cc(C)c(CNC(=O)c2ccc(C(C)Oc3ccccc3)cc2Cl)c(=O)[nH]1 (stereo not drawn) : < 1000 nM

// assay Histone-lysine N-methyltransferase EZH2 (Homo sapiens), entry Cc1cc(C)c(CNC(=O)c2ccc(C(C)C(C)C)cc2)c(=O)[nH]1 (stereo not drawn) , IC50 value = < 1000 nM

Measured IC50 for this entry COc1cc(C)[nH]c(=O)c1CNC(=O)c1c(C)c(C(C)C2CCN(C(=O)C(C)(C)F)CC2)n2ncccc12 (stereo not drawn) on Histone-lysine N-methyltransferase EZH2 (Homo sapiens): < 100 nM

###

Field pIC50: reported value for Histone-lysine N-methyltransferase EZH2 (Homo sapiens, UniProt Q15910); entries drawn from several documents.
pIC50: −log10 of the molar value.

// Cc1cc(C)c(CNC(=O)c2cc(Br)c3c(c2C)OC(C)(C2CCOCC2)O3)c(=O)[nH]1 (stereo not drawn) : pIC50 value = 7.66

For reference, reported pIC50 for CCN(c1cc(Cl)cc(C(=O)NCc2nccn2C(C)C)c1C)[C@H]1CC[C@H](N(C)C)CC1 stands at < 5.00

So, CN(C[C@H]1O[C@@H](n2cnc3c(N)ncnc32)[C@H](O)[C@@H]1O)CC1(CNC(=O)Nc2ccc(C(C)(C)C)cc2)CC1 ? Its pIC50 was < 4.30

###

We begin with IC50 values for Histone-lysine N-methyltransferase EZH2 (Homo sapiens), as collected from the published literature.

Assay Histone-lysine N-methyltransferase EZH2 (Homo sapiens), sample COc1cc(C)[nH]c(=O)c1CNC(=O)c1c(C)c(C(C)c2ccccc2)n2ncccc12 (single isomer, unassigned) , IC50 read: < 100 nM

Entry CCN(c1cc(Cl)cc(C(=O)NCCc2nc3ccccc3n2C)c1C)[C@H]1CC[C@H](N(C)C)CC1 under Histone-lysine N-methyltransferase EZH2 (Homo sapiens) had IC50 of > 50000 nM

Simply: COc1cc(C)[nH]c(=O)c1CNC(=O)c1c(Cl)c(C(C)C2CCOCC2)n2ncccc12 (stereo not shown) , Histone-lysine N-methyltransferase EZH2 (Homo sapiens), IC50 = < 100 nM

Here Cc1cc(C)c(CNC(=O)c2ccc([C@H](C)Oc3cccc(C#N)c3)cc2)c(=O)[nH]1 was tested on Histone-lysine N-methyltransferase EZH2 (Homo sapiens), and its IC50 came to < 1000 nM

###

// note: pIC50 values for Histone-lysine N-methyltransferase EZH2 (Homo sapiens) were reported in different studies
pIC50: −log10 of the molar value.

Measured on Histone-lysine N-methyltransferase EZH2 (Homo sapiens), CCN(c1cc(Cl)cc(C(=O)NCc2c(OC)nn(C)c2N2CCCC2)c1C)[C@H]1CC[C@H](N(C)C)CC1 has a documented pIC50 of < 4.30

Cc1cc(C)c(CNC(=O)c2c(C)c(C(=O)N3CCOCC3)n3ncccc23)c(=O)[nH]1 tested on Histone-lysine N-methyltransferase EZH2 (Homo sapiens) gave pIC50: 6.00 to 7.00

Entry CCN(c1cc(Cl)cc(C(=O)NCc2c(N3CCCCC3)nn(C)c2OC)c1C)[C@H]1CC[C@H](N(C)C)CC1 under Histone-lysine N-methyltransferase EZH2 (Homo sapiens) had pIC50 of < 4.30

Tested on Histone-lysine N-methyltransferase EZH2 (Homo sapiens), the item COCC(Oc1ccccc1)c1ccc(C(=O)NCc2c(C)cc(C)[nH]c2=O)cc1 (centres unmarked) showed pIC50 equal to < 4.10

CCN(c1cc(Cl)cc(C(=O)NCc2c(C)[nH]n(C)c2=O)c1C)[C@@H]1COC[C@H]1OCCOC (relative stereo) on Histone-lysine N-methyltransferase EZH2 (Homo sapiens) gives pIC50 = < 4.30

Response field pIC50 (Histone-lysine N-methyltransferase EZH2 (Homo sapiens)) for item CCN(c1cc(Cl)cc(C(=O)NCc2cc(C)nn2C)c1C)C1CCOCC1 : < 4.30

Form field, pIC50 with Histone-lysine N-methyltransferase EZH2 (Homo sapiens), item COc1cc(C)[nH]c(=O)c1CNC(=O)c1cc(Cl)c2c(c1C)OC(C)([C@@H]1CC[C@@H](N(C)C)CO1)O2 (some centres unmarked) : 7.85

Per the reported Histone-lysine N-methyltransferase EZH2 (Homo sapiens) data, CN(CCCCNC(=O)Nc1ccc(C(C)(C)C)cc1)C[C@H]1O[C@@H](n2cnc3c(N)ncnc32)[C@H](O)[C@@H]1O has pIC50 of < 4.30

Entry COc1ccc2c(C(=O)NCc3c(C)cc(C)[nH]c3=O)c(C)c(C(C)C3CCN(CC(C)(C)O)CC3)n2n1 (centres unmarked) ; assay system Histone-lysine N-methyltransferase EZH2 (Homo sapiens); pIC50 recorded at > 7.00

pIC50 value, target or system Histone-lysine N-methyltransferase EZH2 (Homo sapiens), for CC(=O)NC(C)c1ccc(C(=O)NCc2c(C)cc(C)[nH]c2=O)cc1 (centres unmarked) : < 4.10

Entry Cc1cc(C)c(CNC(=O)c2ccc3c(c2)CCCC3Oc2ccccc2)c(=O)[nH]1 (centres unmarked) , tested on Histone-lysine N-methyltransferase EZH2 (Homo sapiens), has a reported pIC50 of 4.30 to 5.00

Readout pIC50 for CCN(c1cc(Cl)cc(C(=O)NCc2c(C(F)(F)F)[nH]n(C)c2=O)c1C)[C@H]1CC[C@H](N(C)C)CC1 , test system Histone-lysine N-methyltransferase EZH2 (Homo sapiens), was < 4.30

Form field pIC50 for item Cc1cc(C)c(CNC(=O)c2ccc(COc3ccccc3)cc2)c(=O)[nH]1 on Histone-lysine N-methyltransferase EZH2 (Homo sapiens): 5.00 to 6.00

Measured pIC50 for this entry Cc1cc(C)c(CNC(=O)c2ccc(COc3cccc(-c4ccc(N)nc4)c3)cc2)c(=O)[nH]1 on Histone-lysine N-methyltransferase EZH2 (Homo sapiens): > 6.00

Given the compound CN(CCCNC(=O)Nc1ccc(-c2cscn2)cc1)C[C@H]1O[C@@H](n2cnc3c(N)ncnc32)[C@H](O)[C@@H]1O and test system Histone-lysine N-methyltransferase EZH2 (Homo sapiens), the measured pIC50 is < 4.30

Field pIC50 (system: Histone-lysine N-methyltransferase EZH2 (Homo sapiens)) for entry CCN(c1cc(Cl)cc(C(=O)NCc2c(C)ccc3cn(C)nc23)c1C)[C@H]1CC[C@H](N(C)C)CC1 = < 5.00

Note to self: pIC50 of Cc1cc(C)c(CNC(=O)c2ccc(C(C)Oc3ncccn3)cc2)c(=O)[nH]1 (centres unmarked) with Histone-lysine N-methyltransferase EZH2 (Homo sapiens) was 4.30 to 5.00

###

Multiple publications report pIC50 for Histone-lysine N-methyltransferase EZH2 (Homo sapiens); what follows is a combined list.
pIC50: −log10 of the molar value.

Hey, Histone-lysine N-methyltransferase EZH2 (Homo sapiens) data for Cc1cc(C)c(CNC(=O)c2ccc(C(CO)Oc3ccccc3)cc2)c(=O)[nH]1 (centres unmarked) : pIC50 came out at 5.00 to 6.00

Kindly note: Histone-lysine N-methyltransferase EZH2 (Homo sapiens), COc1cc(C)[nH]c(=O)c1CNC(=O)c1c(C)c(C(C)C2CCN(CC(F)F)CC2)n2ncccc12 (centres unmarked) , pIC50 value reported: > 7.00

// pIC50 (Histone-lysine N-methyltransferase EZH2 (Homo sapiens)) for CCN(c1cc(Cl)cc(C(=O)NCc2cncn2C)c1C)C1CCOCC1 = < 4.30

Lab entry: Histone-lysine N-methyltransferase EZH2 (Homo sapiens) assay, compound Cc1cc(C)c(CNC(=O)c2ccc(C3CCOC3)cc2)c(=O)[nH]1 (centres unmarked) , pIC50 = > 6.00

Summary line: Cc1cc(C)c(CNC(=O)c2ccc(C(C)Oc3ccncn3)cc2)c(=O)[nH]1 (centres unmarked) , Histone-lysine N-methyltransferase EZH2 (Homo sapiens), reported pIC50 = > 6.00

Readout pIC50 for CCS(=O)(=O)N1CCC(C(C)c2c(C)c(C(=O)NCc3c(OC)cc(C)[nH]c3=O)n3ccncc23)CC1 (racemic) , test system Histone-lysine N-methyltransferase EZH2 (Homo sapiens), was > 7.00

The compound Cc1cc(C)c(CNC(=O)c2c(C)cn(C(C)c3ccccc3)c(=O)c2C)c(=O)[nH]1 (centres unmarked) , when measured on Histone-lysine N-methyltransferase EZH2 (Homo sapiens), yielded pIC50 of > 6.00

I looked up CCC(Oc1ccccc1)c1ccc(C(=O)NCc2c(C)cc(C)[nH]c2=O)cc1 (centres unmarked) and its pIC50 for Histone-lysine N-methyltransferase EZH2 (Homo sapiens) was > 6.00
